molecular target: Focal adhesion kinase 1 (Homo sapiens) (UniProt Q05397); test: PTK2 protein binding on printed compound slides – biochemical, small-molecule microarray, 635/667 nm fluorescence, BSA, DTT, primary screen (AID 1130); settings: 635 nm fluorescence, higher = more signal;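 further: composite of spot emission at 667 nm and signal to noise over triplicate slides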
Sequence (Q05397 whole entry, looked up): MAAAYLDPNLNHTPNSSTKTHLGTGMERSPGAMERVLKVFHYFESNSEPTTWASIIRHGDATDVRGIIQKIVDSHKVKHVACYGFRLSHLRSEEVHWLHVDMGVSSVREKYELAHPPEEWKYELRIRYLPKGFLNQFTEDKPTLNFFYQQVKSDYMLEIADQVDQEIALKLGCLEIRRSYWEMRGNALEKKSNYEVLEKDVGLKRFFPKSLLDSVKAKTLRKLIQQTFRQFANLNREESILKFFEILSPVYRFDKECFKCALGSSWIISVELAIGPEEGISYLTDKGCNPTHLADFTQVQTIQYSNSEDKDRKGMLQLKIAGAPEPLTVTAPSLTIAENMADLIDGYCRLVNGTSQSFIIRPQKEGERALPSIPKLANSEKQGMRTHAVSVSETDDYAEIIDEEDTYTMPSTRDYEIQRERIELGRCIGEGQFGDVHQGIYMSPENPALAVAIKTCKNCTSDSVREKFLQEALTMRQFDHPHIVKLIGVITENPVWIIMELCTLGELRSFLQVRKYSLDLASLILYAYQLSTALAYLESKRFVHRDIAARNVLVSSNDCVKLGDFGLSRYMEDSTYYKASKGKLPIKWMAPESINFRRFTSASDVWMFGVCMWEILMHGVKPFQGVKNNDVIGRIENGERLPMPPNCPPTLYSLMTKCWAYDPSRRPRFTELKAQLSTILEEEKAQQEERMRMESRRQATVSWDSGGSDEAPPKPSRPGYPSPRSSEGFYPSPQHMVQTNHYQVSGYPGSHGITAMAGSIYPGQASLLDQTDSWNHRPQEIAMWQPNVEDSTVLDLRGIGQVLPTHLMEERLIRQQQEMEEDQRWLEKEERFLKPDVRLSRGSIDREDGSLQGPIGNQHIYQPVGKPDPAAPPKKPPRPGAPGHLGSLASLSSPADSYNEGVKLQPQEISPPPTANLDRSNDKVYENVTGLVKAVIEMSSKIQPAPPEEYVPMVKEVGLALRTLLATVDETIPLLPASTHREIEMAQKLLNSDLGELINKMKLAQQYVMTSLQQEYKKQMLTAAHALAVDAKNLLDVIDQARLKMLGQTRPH

| COMPOUND | composite z-score |
| --- | --- |
| COC(=O)[C@@]1(Cc2ccccc2)[C@H]2c3cc(C(=O)N(C)C)n(Cc4ccccn4)c3C[C@H]2CN1C(=O)c1ccccc1 | 1.56 |
| COC(=O)[C@]1(Cc2ccccc2CN=[N+]=[N-])N=C(c2ccc(OCCCO)cc2)O[C@@H]1c1ccccc1CN=[N+]=[N-] | 0.392 |
| COCCOC(=O)N1C(=O)[C@@]2(c3cc(C#Cc4ccc(OC)cc4)ccc31)[C@H](C(=O)N1CCc3cc(OC)c(OC)cc3C1)[C@H]1C(=O)O[C@H](c3ccccc3)[C@H](c3ccccc3)N1[C@@H]2c1ccc(O)cc1 | 0.226 |
| COCCCNC(=O)[C@@]1(Cc2ccccc2)COC(c2ccc(OCCCO)cc2)=N1 | 0.953 |
| O=C1N(CCS(=O)(=O)c2ccccc2)Cc2ccccc2C[C@@]12COC(c1ccc(OCCCO)cc1)=N2 | 1.04 |
| C=CCOC(=O)[C@@H]1[C@H]2C(=O)O[C@H](c3ccccc3)[C@H](c3ccccc3)N2[C@H](c2ccc(OCCOC(=O)[C@@H]3C[C@@H]4C(=O)N[C@@H](CCCCNC(C)=O)C(=O)N4[C@@H]3c3ccc(O)cc3)cc2)[C@@]12C(=O)Nc1ccc(I)cc12 | 0.478 |
| Cc1cc(C)c(C(O)C2C=CC3C(=O)N(c4ccccc4)C(=O)C3N2Nc2ccc([N+](=O)[O-])cc2)c(C)c1 (configuration not stated) | 0.434 |
| COC(=O)[C@]1(Cc2ccccc2N=[N+]=[N-])N=C(c2ccc(OCCCO)cc2)O[C@@H]1c1ccccc1 | -0.141 |
| COC(=O)[C@@]1(Cc2ccc(F)cc2)[C@@H]2[C@@H](CC(=O)[C@H]2CC(=O)C(=O)N2CCCC2)CN1C(=O)c1ccccc1 | 1.51 |
| CCOc1cc(C(O)C2C=CC3C(=O)NC(=O)C3N2Nc2ccccn2)ccc1O (configuration not stated) | -0.0976 |
| COC(=O)C(CC#Cc1ccc2c(c1)[C@]1(C(=O)N2)[C@H](C(=O)N2CCc3cc(OC)c(OC)cc3C2)[C@H]2C(=O)O[C@H](c3ccccc3)[C@H](c3ccccc3)N2[C@@H]1c1ccc(O)cc1)C(=O)OC | 0.695 |
| CCCC=C(CCC)[C@@H](NS(=O)(=O)CC)c1ccccc1 | 0.655 |
| C=CCOc1ccc([C@@H]2CC=C(C(=O)OCC)[C@H](c3cccc(Br)c3)N2S(=O)(=O)c2ccc(C)cc2)cc1 | -0.209 |
| COC(=O)[C@@]1(Cc2ccc(F)cc2)[C@H]2c3cc(C(=O)N(C)C)n(CCSCCO)c3C[C@H]2CN1C(=O)c1ccccc1 | 0.879 |
| CC(=O)NCCCC[C@@H]1NC(=O)[C@H]2C[C@@H](C(=O)NCCCCCN)[C@@H](c3cccc(OCCO)c3)N2C1=O | 1.38 |
| CC(C)(C)OC(=O)CC[C@@]1(C(=O)N2CCCCC2)N=C(c2ccc(OCCCO)cc2)O[C@@H]1c1ccccc1N=[N+]=[N-] | 1.7 |
| CCCCC(=C=CC[C@H](O)c1cccc(OCCO)c1)C[C@H](O)COCc1ccccc1 | 0.105 |
| C[C@]12C(=O)N(CCCCCO)[C@@H]3C(=O)N(c4ccc(Cl)cc4)CC=CC31O[C@@H]1/C=C\CCCOC(=O)C12 (some centres not stated) | -0.83 |
| C=C(COC)C(=O)CC[C@H](OC(=O)c1ccccc1-c1ccccc1C(=O)O)c1ccc(OCCO)cc1 | 0.033 |
| [N-]=[N+]=NCc1ccccc1C[C@]1(C(=O)NCCN2CCOCC2)N=C(c2ccc(OCCCO)cc2)O[C@H]1c1ccccc1 | 0.378 |
| CC(C)C[C@@H]1NC(=O)[C@@H]2C[C@H](C(=O)NCCCC[N+](C)(C)C)[C@H](c3cccc(OCCO)c3)N2C1=O | -0.584 |
| C=CCOC(=O)[C@H]1[C@@H]2C(=O)O[C@@H](c3ccccc3)[C@@H](c3ccccc3)N2[C@@H](c2ccc(OCCOC(=O)[C@H]3C[C@H]4C(=O)N[C@@H](CCCCN(C)C)C(=O)N4[C@H]3c3ccc(O)cc3)cc2)[C@]12C(=O)Nc1ccccc12 | 0.806 |
| CCOC(=O)C[C@H]1[C@H](OC(=O)c2ccccc2-c2ccccc2)[C@@H](NC(=O)c2ccccc2)c2cc(OCCCO)ccc2N1C(=O)Cc1ccc(OC)cc1 | 0.0427 |
| COCCOC(=O)N1C(=O)[C@@]2(c3cc(C#CC4(O)CCCCCC4)ccc31)[C@H](C(=O)N1CCc3cc(OC)c(OC)cc3C1)[C@H]1C(=O)O[C@H](c3ccccc3)[C@H](c3ccccc3)N1[C@@H]2c1ccccc1OCCO | 0.32 |
| Cc1ccc(-c2cccc(=O)o2)cc1 | -0.404 |
| COCCOC(=O)N1C(=O)[C@@]2(c3cc(C#CCCO)ccc31)[C@H](c1ccc(OCCO)cc1)N1[C@H](c3ccccc3)[C@H](c3ccccc3)OC(=O)[C@H]1[C@@H]2C(=O)N1CCc2cc(OC)c(OC)cc2C1 | 0.81 |
| C=C(/C(=C/C[C@@H](OC(=O)c1ccncc1)c1cccc(OCCO)c1)c1cc(C(=O)OC)ccc1OC)C(C)C | -0.165 |

###

experiment: small molecules captured by biotinylated probe aFGF10 – biochemical, small-molecule microarray, fluorescence 635/667, stem cell growth factor project, primary screen (AID 1071); details: higher = more signal;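 further: score merges 667 nm spot intensity and signal to noise from triplicate slides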
The following compounds are listed with their measured composite z-score values.

| MOL SMILES | composite z-score |
| --- | --- |
| COC(=O)C(CC#Cc1ccc2c(c1)[C@]1(C(=O)N2)[C@H](C(=O)N2CCc3cc(OC)c(OC)cc3C2)[C@H]2C(=O)O[C@H](c3ccccc3)[C@H](c3ccccc3)N2[C@@H]1c1ccc(O)cc1)C(=O)OC | 0.734 |
| CC(C)NC(=O)[C@@H]1c2ccccc2C(=O)N(Cc2cc(C(F)(F)F)cc(C(F)(F)F)c2)[C@H]1c1ccc(CO)cc1 | -0.0264 |
| Cc1ccc(N2C(=O)c3ccccc3[C@](C)(C(=O)NC(C)C)[C@@H]2c2ccc(CO)cc2)nc1 | -1.11 |
| [N-]=[N+]=NCc1ccccc1[C@H]1OC(c2ccc(OCCCO)cc2)=N[C@@]1(Cc1ccccc1)C(N)=O | 0.68 |
| C=CCNC(=O)[C@@H]1[C@H]2C(=O)O[C@H](c3ccccc3)[C@H](c3ccccc3)N2[C@H](c2ccc(O)cc2)[C@@]12C(=O)Nc1ccc(C#CCCO)cc12 | 0.508 |
| C[N+](C)(C)CCCCCCNC(=O)[C@H]1C[C@H]2C(=O)N3CCC[C@H]3C(=O)N2[C@H]1c1cccc(OCCO)c1 | 0.573 |
| COCCOC(=O)N1C(=O)[C@@]2(c3cc(C#CCCO)ccc31)[C@H](C(=O)N1CCc3cc(OC)c(OC)cc3C1)[C@H]1C(=O)O[C@H](c3ccccc3)[C@H](c3ccccc3)N1[C@@H]2c1ccc(OCCO)cc1 | 0.501 |

###

target: Pro-neuregulin-1, membrane-bound isoform (Homo sapiens); experiment: small molecules binding neuregulin-1 protein – biochemical, small-molecule microarray, fluorescence 635/667, psychiatric disease protein project, primary screen (AID 1075); settings: NRG1 binding, 635 nm fluorescence, higher = more signal;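 further: score combines 667 nm spot fluorescence with signal to noise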

| MOLECULE | composite z-score |
| --- | --- |
| COc1ccccc1CN1C(=O)c2ccccc2[C@@]2(Cc3ccccc3N(C3CC3)C2=O)[C@@H]1c1ccc(CO)cc1 | 0.937 |
| C=CCOc1ccc([C@@H]2CC=C(C(=O)OCC)[C@H](c3cccc(Br)c3)N2S(=O)(=O)c2ccc(C)cc2)cc1 | 0.866 |
| CCCCCCC#C[Si](O[C@H](c1ccccc1)c1cn(Cc2cccc(Cl)c2)nn1)(C(C)C)C(C)C | 0.485 |
| COC(=O)[C@@]1(Cc2ccc(F)cc2)[C@@H]2[C@@H](CC(=O)[C@H]2CC(=O)C(=O)N2CCCC2)CN1C(=O)c1ccccc1 | 1.85 |
| Cc1ccccc1C(O)C1C=CC2C(=O)N(Cc3ccccc3)C(=O)C2N1n1cnnc1 (centres undefined) | 1.03 |
| C=CCOC(=O)[C@@H]1[C@H]2C(=O)O[C@H](c3ccccc3)[C@H](c3ccccc3)N2[C@H](c2ccc(OCCOC(=O)[C@@H]3C[C@@H]4C(=O)N[C@@H](CCCCNC(C)=O)C(=O)N4[C@@H]3c3ccc(O)cc3)cc2)[C@@]12C(=O)Nc1ccc(I)cc12 | 0.767 |
| COCCCNC(=O)[C@]1(Cc2ccccc2)N=C(c2ccc(OCCCO)cc2)O[C@@H]1c1ccccc1N=[N+]=[N-] | 0.725 |
| O=C1C[C@@](C(=O)NCc2ccccc2)(c2ccc([N+](=O)[O-])cc2)[C@@H](c2ccc(CO)cc2I)N1C1CCCCC1 | 0.819 |
| C=C[C@H](C)[C@H](OC(=O)Nc1ccc(SC)cc1)c1ccc(O)c2ccccc12 | 0.583 |
| COCCOC(=O)N1C(=O)[C@@]2(c3ccccc31)[C@H](c1ccc(OCCO)cc1)N1[C@H](c3ccccc3)[C@H](c3ccccc3)OC(=O)[C@H]1[C@@H]2C(=O)NC[C@H](O)c1ccccc1 | 1.52 |
| COc1ccc([Si](C)(C)[C@@H]2[C@@H](CCO)O[C@]3(C(=O)N(Cc4ccc(N5C(=O)c6ccccc6Oc6ccccc65)cc4)c4ccccc43)[C@H]2C)cc1 | 1.09 |
| CCC[C@@H]1C[C@@]1(CCC)[C@@H](NC(=O)c1ccco1)c1ccc(Cl)cc1 | -0.656 |
| COC(=O)C(CC#Cc1ccc2c(c1)[C@]1(C(=O)N2)[C@H](c2ccc(OCCO)cc2)N2[C@H](c3ccccc3)[C@H](c3ccccc3)OC(=O)[C@H]2[C@@H]1C(=O)O)C(=O)OC | 2.03 |
| C=CCN1C(=O)[C@@]2(O[C@@H](CCn3cc([C@H](O)c4ccccc4)nn3)[C@H]([Si](C)(C)c3ccc(OC)cc3)[C@H]2C)c2cc(NC(=O)c3ccc(OC)cc3)ccc21 | 0.56 |
| CC1CC/C=C\[C@H]2OC34C=CCN(Cc5ccccc5)C(=O)[C@H]3N(CCO)C(=O)[C@@H]4C2C(=O)O1 (some centres undefined) | 1.86 |
| CC(C)c1ccc(NN2C(C(O)c3ccccn3)C=CC3C(=O)N(c4ccccc4)C(=O)C32)cc1 (centres undefined) | 1.64 |
| CN1C(=O)C2C=CC(C(O)COCc3ccccc3)N(Nc3ccccc3)C2C1=O (centres undefined) | 0.374 |
| C[N+](C)(C)CCCCCCNC(=O)[C@H]1C[C@H]2C(=O)N3CCC[C@H]3C(=O)N2[C@H]1c1cccc(OCCO)c1 | 0.577 |
| C[N+](C)(C)CCCC[C@@H]1NC(=O)[C@@H]2C[C@H](C(=O)O)[C@H](c3cccc(OCCO)c3)N2C1=O | -0.0567 |
| Cc1ccc(C(C)CC(O)C2C=CC3C(=O)N(Cc4ccccc4)C(=O)C3N2n2cnnc2)o1 (centres undefined) | 0.907 |
| [N-]=[N+]=Nc1ccccc1[C@@H]1OC(c2ccc(OCCCO)cc2)=N[C@]1(CCS(=O)(=O)c1ccccc1)C(=O)NCc1ccccc1 | 1.9 |
| COC(=O)[C@]1(Cc2ccccc2N=[N+]=[N-])N=C(c2ccc(OCCCO)cc2)O[C@@H]1c1ccccc1 | 0.358 |
| O=C1O[C@H](c2ccccc2)[C@H](c2ccccc2)N2[C@H]1[C@@H](C(=O)N1CCCCCCC1)[C@]1(C(=O)Nc3ccccc31)[C@H]2c1ccc(O)cc1 | 2.55 |
| O=C1NC(=O)C2C1C=CC(C(O)CCc1ccccc1)N2Nc1ccccn1 (centres undefined) | 1.19 |
| CN(C)CCCN1C(=O)[C@@]2(Cc3ccccc31)c1ccccc1C(=O)N(Cc1ccccc1)[C@H]2c1ccc(CO)cc1 | 0.466 |
| COc1cc(C(O)C2C=CC3C(=O)N(C)C(=O)C3N2NC(=O)OC(C)(C)C)cc(OC)c1OC (centres undefined) | 2.13 |
| COCCCNC(=O)[C@]1(CCS(=O)(=O)c2ccccc2)N=C(c2ccc(OCCCO)cc2)O[C@@H]1c1ccccc1 | 2.12 |
| Cc1cc(C)c(C(O)C2C=CC3C(=O)N(c4ccccc4)C(=O)C3N2Nc2ccccc2)c(C)c1 (centres undefined) | 1.99 |
| O=C1NC(=O)C2C1C=CC(C(O)c1ccc(-c3ccccc3)s1)N2Nc1ccccn1 (centres undefined) | 1.27 |
